A collection of compounds and their measured EC50
test system: Influenza virus A/California/2/2014 (H3N2); assay: microbe, parasite or virus in culture; type: cell-based; settings: H3N2, MDCK, read-out: EC50 (mean ± SD)
experimental.readout: EC50

> print(dat)
                                   compound  experimental.readout  reported.value
1  O=C1c2c(O)c(=O)ccn2N([C@@H]2c3ccccc3SCc3c2ccc(F)c3F)[C@@H]2COCCN12                  EC50         0.61 nM
2  O=C(O)[C@H]1C2CCC(CC2)[C@@H]1Nc1nc(-c2c[nH]c3ncc(F)cc23)ncc1F [VX-787, reference compound]                  EC50         0.15 nM
3  O=C(O)[C@H]1C2CCC(CC2)[C@@H]1Nc1nc(-c2n[nH]c3ncc(F)cc23)nc(C2CC2)c1F                  EC50         0.01 nM
